B1: Hairpin Ribozyme (parent)
chain: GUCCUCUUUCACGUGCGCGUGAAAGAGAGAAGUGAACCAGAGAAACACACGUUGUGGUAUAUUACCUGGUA

Variants of: B1
Experiment: self-cleavage, relative activity (ratio to wild type); higher = more cleavage; co-transcriptional

{"item sequence": "GUCCUCUUUCACGUGCGCGUGAAAGAGAUAAGUGAACCAGAGAAAUACACGUUGUGGUAUAUUACCUGGUA [G29U C46U]", "self-cleavage": 0.124}
{"item sequence": "GUCCUCUUUCACGUACGCGUGAAAGAGAGAAGUGAACCAUAGAAACACACGUUGUGGUAUAUUACCUGGUA [G15A G40U]", "self-cleavage": 0.111}
{"item sequence": "GUCGUCUUUCACGUGCGCGUGAAAGAGAGAAGUGAACCAGAGAAACACACGUUGGGGUAUAUUACCUGGUA [C4G U55G]", "self-cleavage": 0.113}
{"item sequence": "GUCCUCUUUCACGUGCGCGUGAAAGAGAGAAGUGAGCCAGAGAAACACACGUUGUGGUAUAUUACCUGGAA [A36G U70A]", "self-cleavage": 1.11}
{"item sequence": "GUCCUCUUUCACGUGCGCGCGAAAGAGAGAAGUGAACCAGAGAAACACCCGUUGUGGUAUAUUACCUGGUA [U20C A49C]", "self-cleavage": 0.172}
{"item sequence": "GUCCUCUUUCACGUGAGCGUGAAAGAGAGAAGUGAACCAGAGAAACACACAUUGUGGUAUAUUACCUGGUA [C16A G51A]", "self-cleavage": 0.943}
{"item sequence": "GUCCUCUUUCACGUGCGCGUGAAAGAGAGAAGUGAAUCAGAGAAACACACGUUAUGGUAUAUUACCUGGUA [C37U G54A]", "self-cleavage": 0.397}
{"item sequence": "UUCCUCUUUCACGUGCGCGUGAAAGAGAGAAGUGAACCAGAGAAACACACGUUGUGGUAUAUCACCUGGUA [G1U U63C]", "self-cleavage": 0.181}
{"item sequence": "GUCCUCUUUCACGUGCGCGUGAAAGAGAGAAGUGAACCAGAGCAACACACGUUGGGGUAUAUUACCUGGUA [A43C U55G]", "self-cleavage": 0.148}
{"item sequence": "GUCCUCUUUCACGUGCGCUUGAAAGAGAGAAGUGAAGCAGAGAAACACACGUUGUGGUAUAUUACCUGGUA [G19U C37G]", "self-cleavage": 0.341}
{"item sequence": "GUCCUCUUUCACGUGCGCGUGAAAGAGAGAAGUGAACCAGAGAAACACACGUUGUGGUACAUUACCUGGUA [U60C]", "self-cleavage": 1.16}
{"item sequence": "GUCCUCUUUCACGUGCGCGUGAAAGAGAGAAUUGAACCAGAGCAACACACGUUGUGGUAUAUUACCUGGUA [G32U A43C]", "self-cleavage": 0.0806}
{"item sequence": "GUCCGCUUUCCCGUGCGCGUGAAAGAGAGAAGUGAACCAGAGAAACACACGUUGUGGUAUAUUACCUGGUA [U5G A11C]", "self-cleavage": 0.175}
{"item sequence": "GUCCUCUUUCGCGUGCGCGUGAAAGAGAGAAGUGAACCAGAGAAACACCCGUUGUGGUAUAUUACCUGGUA [A11G A49C]", "self-cleavage": 0.124}
{"item sequence": "GUCCUCUCUCACGUGCGCGUGAAAGAGAGAAGUGUACCAGAGAAACACACGUUGUGGUAUAUUACCUGGUA [U8C A35U]", "self-cleavage": 0.679}
{"item sequence": "GUCCUCUUUCACGUGCGCGUGAAAGAGAGAAGUGAAACAGAGAAACACACGGUGUGGUAUAUUACCUGGUA [C37A U52G]", "self-cleavage": 0.224}
{"item sequence": "GUCCUCUUUCACGUGCACGUGAAAGAGAGAAGUGAACGAGAGAAACACACGUUGUGGUAUAUUACCUGGUA [G17A C38G]", "self-cleavage": 0.198}
{"item sequence": "GUCCUCUUUCACGUGCGCGUGAAAGUGAGACGUGAACCAGAGAAACACACGUUGUGGUAUAUUACCUGGUA [A26U A31C]", "self-cleavage": 0.171}
{"item sequence": "GUCCUCUAUCACGUGCGCGUGUAAGAGAGAAGUGAACCAGAGAAACACACGUUGUGGUAUAUUACCUGGUA [U8A A22U]", "self-cleavage": 0.891}
{"item sequence": "GUCCUCUUUCACGUGCGCGUGAAAGAGAGAAGUGAACCAGAGAAACACACGUUGGGAUAUAUUACCUGGUA [U55G G57A]", "self-cleavage": 0.0886}
{"item sequence": "GUCCUCUUUCACGUGCGCGUGAAAGAGAGAAGUGAACCCGAGAAACACACGUUGUGUUAUAUUACCUGGUA [A39C G57U]", "self-cleavage": 0.16}
{"item sequence": "GUCCUCUUUCACGUGCGCGUGAAAGAGAGAAGUGAACGAGAGAAACACACGUUGUGGUAUAGUACCUGGUA [C38G U62G]", "self-cleavage": 0.0875}
{"item sequence": "GUCCUCUUUCACGUGCGCGUGAAAGAGAGACGUGAACCAGAGAAACACACGUUGUGGUAUAUUACUUGGUA [A31C C66U]", "self-cleavage": 0.225}
{"item sequence": "GUCCUCUUUCACGUGCGCGUGAAAGAGAGAAGUGAACCAGAGCAACACACGUUGUGGUAGAUUACCUGGUA [A43C U60G]", "self-cleavage": 0.0932}
{"item sequence": "GUCCUCUUUCACGUGCGCGUGAAAGACAGAAGUGAACCAGAGAAACACACGUUGUGGUAUAGUACCUGGUA [G27C U62G]", "self-cleavage": 0.161}
{"item sequence": "GUCCUCUUUCACGUGCGCGUGAAAGAGAGAAGUGCACCAGAGAAACACACGUUGGGGUAUAUUACCUGGUA [A35C U55G]", "self-cleavage": 0.27}
{"item sequence": "GUCCUCUUUCACGUGUGCGUGAAAGAGAGAAGUGAACCAGAGAAACACACGUUGUGGUAUAUUACAUGGUA [C16U C66A]", "self-cleavage": 0.194}
{"item sequence": "GUCCUCUUUCACGUGCGAGUGAAAGAGAGAAGUGAACCAGAGAAACACACGUUGCGGUAUAUUACCUGGUA [C18A U55C]", "self-cleavage": 0.3}
{"item sequence": "GUCCUCUUUCACGUGCGCGUGAGAGAGAGAUGUGAACCAGAGAAACACACGUUGUGGUAUAUUACCUGGUA [A23G A31U]", "self-cleavage": 0.0848}
{"item sequence": "GUCCUCUUUCACGUGCGCGUGAAAGAGAGAAGUGAACCAGAGAAACACACGGUGUGGUAUAUUGCCUGGUA [U52G A64G]", "self-cleavage": 0.301}
{"item sequence": "GUCCUCUUUCACGUGCGCGUGAAAGAGAGAAGUGAACCAGAGAAACGCAAGUUGUGGUAUAUUACCUGGUA [A47G C50A]", "self-cleavage": 0.172}
{"item sequence": "GUCCUCUUUCAAGUGCGCGUGAAAGAGAGAAGUGAACCAGAGGAACACACGUUGUGGUAUAUUACCUGGUA [C12A A43G]", "self-cleavage": 0.116}
{"item sequence": "GUCCUCUUUCACGUGCUCGUGAAAGAGAGAAGUGAACCAGAGAAAAACACGUUGUGGUAUAUUACCUGGUA [G17U C46A]", "self-cleavage": 0.152}
{"item sequence": "GUCCUCUUUCACGUGCGCGUGAAAGAGAGAAGUGAACCAGAGAAACACACGUUGAGGUAUAUUACCUGGAA [U55A U70A]", "self-cleavage": 0.181}
{"item sequence": "GUCCUCUUUGACGUGCGCGUGAAAGAGAGACGUGAACCAGAGAAACACACGUUGUGGUAUAUUACCUGGUA [C10G A31C]", "self-cleavage": 0.198}
{"item sequence": "GUCCUCUUUCACGUGCACGUGAAAGAGAGAAGUGAACCAAAGAAACACACGUUGUGGUAUAUUACCUGGUA [G17A G40A]", "self-cleavage": 0.185}
{"item sequence": "GUCCUCUUUCACGUGCGCGUGAAAGAGAGAAGUGAACCAGAGAAACACACGUUAUGGCAUAUUACCUGGUA [G54A U58C]", "self-cleavage": 0.635}
{"item sequence": "GUCCUCUUUCACGUGCGCGUGGAAGAGAUAAGUGAACCAGAGAAACACACGUUGUGGUAUAUUACCUGGUA [A22G G29U]", "self-cleavage": 0.0873}
{"item sequence": "CUCCUCUUUCACGUGCGCGUGAAAGAGAGAAGUGAACCAGAGAAACACACGUUGUUGUAUAUUACCUGGUA [G1C G56U]", "self-cleavage": 0.293}
{"item sequence": "GUCCUCUUUCACGUGCGCGUGGAAGAGAGAAGUGAACCAGACAAACACACGUUGUGGUAUAUUACCUGGUA [A22G G42C]", "self-cleavage": 0.365}
{"item sequence": "GUCCUCUUUCACGUGCGCGUGAAAGAGAGAAGUGAACCAGAGAAAUACGCGUUGUGGUAUAUUACCUGGUA [C46U A49G]", "self-cleavage": 0.24}
{"item sequence": "GUCCUCUUUCACGUGCGCGUGAAAGAGAGAAGUGAACCAGAGAAACACACAUUGUGGUAUUUUACCUGGUA [G51A A61U]", "self-cleavage": 0.192}
{"item sequence": "GUCCUCUUUCACGUGCGCGUGAAAGAGAGAAGUGAACCAGAAAAACACACGUUGUGGUAUAUGACCUGGUA [G42A U63G]", "self-cleavage": 0.193}
{"item sequence": "GUCCUCUUUCACGUGCGCGUGAAAGAGAGAAGUGAACCAGAGAUACACACGUUGUGGUUUAUUACCUGGUA [A44U A59U]", "self-cleavage": 0.0331}
{"item sequence": "GUCCUCUUUCACGUGCGCGUCAAAGAGAGAGGUGAACCAGAGAAACACACGUUGUGGUAUAUUACCUGGUA [G21C A31G]", "self-cleavage": 0.275}
{"item sequence": "GUCCUCUUUCACGUGCGCGUGAAAGAGAGAAGUGAACCAGAGAAACACACGUUGAGGUAUAUUGCCUGGUA [U55A A64G]", "self-cleavage": 0.195}
